molecular target: T1, soluble human CD16A (sCD16A) (human, UniProt P08637 17-203); assay: ELISA, captured sCD16A
T1 construct: CD16A truncated just prior to the transmembrane region, expressed in HEK-293; The last seven residues come from vector pCDNA3.1; also called soluble form of human CD16A
T1 sequence (P08637 other isoform, or with tags, fused parts or gaps limits assumed): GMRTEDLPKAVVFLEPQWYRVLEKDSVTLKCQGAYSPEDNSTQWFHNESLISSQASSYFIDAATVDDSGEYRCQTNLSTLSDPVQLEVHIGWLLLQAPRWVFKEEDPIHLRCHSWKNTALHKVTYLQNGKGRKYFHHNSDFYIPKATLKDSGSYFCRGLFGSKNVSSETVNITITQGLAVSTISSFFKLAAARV

binder	binding result
hu3G8VH-16/hu3G8VL-1 (antibody, VH fused to human Cγ1 constant region) VH: QVTLRESGPALVKPTQTLTLTCTFSGFSLSTSGMGVGWIRQPPGKALEWLAHIWWDDDKRYNPALKSRLTISKDTSKNQVVLTMTNMDPVDTATYYCAKINPAWFAYWGQGTLVTVSS light: DIVMTQSPDSLAVSLGERATINCKASQSVDFDGDSFMNWYQQKPGQPPKLLIYTTSNLESGVPDRFSGSGSGTDFTLTISSLQAEDVAVYYCQQSNEDPYTFGQGTKLEIKRTVAAPSVFIFPPSDEQLKSGTASVVCLLNNFYPREAKVQWKVDNALQSGNSQESVTEQDSKDSTYSLSSTLTLSKADYEKHKVYACEVTHQGLSSPVTKSFNRGEC	binds
hu3G8VH-36/hu3G8VL-1 (antibody, VH fused to human Cγ1 constant region) VH: QITLKESGPTLVKPTQTLTLTCTFSGFSLSTSGVGVGWIRQPPGKALEWLALIWWDDDKRYSPSLKSRLTISKDTSKNQVVLTMTNMDPVDTATYYCAQINPAYFDYWGQGTLVTVSS light: DIVMTQSPDSLAVSLGERATINCKASQSVDFDGDSFMNWYQQKPGQPPKLLIYTTSNLESGVPDRFSGSGSGTDFTLTISSLQAEDVAVYYCQQSNEDPYTFGQGTKLEIKRTVAAPSVFIFPPSDEQLKSGTASVVCLLNNFYPREAKVQWKVDNALQSGNSQESVTEQDSKDSTYSLSSTLTLSKADYEKHKVYACEVTHQGLSSPVTKSFNRGEC	binds
